The following binders are shown together with reported IC90, GM-CSF release, NCI/ADR-RES cells, trun-IL-36g values.
Biological target: T1, human IL-36R on cells (human, UniProt Q9HB29 20-575)
T1 sequence (looked up): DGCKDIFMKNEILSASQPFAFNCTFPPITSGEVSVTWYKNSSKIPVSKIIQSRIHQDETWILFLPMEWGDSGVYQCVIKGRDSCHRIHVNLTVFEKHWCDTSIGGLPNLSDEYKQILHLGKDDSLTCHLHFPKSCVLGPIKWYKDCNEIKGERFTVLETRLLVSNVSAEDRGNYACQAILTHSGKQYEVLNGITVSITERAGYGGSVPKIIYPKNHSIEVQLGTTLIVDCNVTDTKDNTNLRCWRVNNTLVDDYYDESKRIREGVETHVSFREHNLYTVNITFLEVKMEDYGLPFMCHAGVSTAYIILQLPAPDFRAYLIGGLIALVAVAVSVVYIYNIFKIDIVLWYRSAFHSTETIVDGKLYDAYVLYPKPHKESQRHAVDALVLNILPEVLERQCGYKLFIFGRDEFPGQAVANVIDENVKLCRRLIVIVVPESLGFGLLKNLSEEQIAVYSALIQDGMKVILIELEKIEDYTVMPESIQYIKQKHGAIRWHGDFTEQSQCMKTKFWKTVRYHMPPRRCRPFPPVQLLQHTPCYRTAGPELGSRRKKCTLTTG
Experiment: cell-based or functional assay
Give the value, in units of nM, as a plain number.

binder	measurement unit	experimental result
antibody 73C5 (antibody, V domains shown, Mouse monoclonal from hybridoma; also called 73C5C10; Mouse 73C5) VH: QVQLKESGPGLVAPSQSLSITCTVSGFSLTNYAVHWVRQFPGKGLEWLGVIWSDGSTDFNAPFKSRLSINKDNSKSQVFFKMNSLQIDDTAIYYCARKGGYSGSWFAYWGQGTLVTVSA VL: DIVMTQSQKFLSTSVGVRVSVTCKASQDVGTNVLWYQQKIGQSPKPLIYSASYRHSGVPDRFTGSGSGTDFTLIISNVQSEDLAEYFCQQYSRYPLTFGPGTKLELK	nM	2
antibody 78C8 (antibody, V domains shown, Mouse monoclonal from hybridoma; also called 78C8D1; Mouse 78C8) VH: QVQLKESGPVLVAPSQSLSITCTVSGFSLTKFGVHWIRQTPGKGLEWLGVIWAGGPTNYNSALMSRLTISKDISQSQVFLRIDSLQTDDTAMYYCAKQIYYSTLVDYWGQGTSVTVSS VL: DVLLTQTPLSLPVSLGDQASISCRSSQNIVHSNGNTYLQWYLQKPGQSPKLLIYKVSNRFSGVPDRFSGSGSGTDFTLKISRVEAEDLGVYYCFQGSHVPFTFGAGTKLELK	nM	1.7

We next turn to a different binder, shown below.
Query antibody 33D10 (antibody, V domains shown, Mouse monoclonal from hybridoma; also called 33D10B12; Mouse 33D10) VH: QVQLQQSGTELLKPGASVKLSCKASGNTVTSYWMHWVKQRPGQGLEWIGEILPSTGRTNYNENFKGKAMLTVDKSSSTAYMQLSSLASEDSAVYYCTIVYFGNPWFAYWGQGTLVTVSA VL: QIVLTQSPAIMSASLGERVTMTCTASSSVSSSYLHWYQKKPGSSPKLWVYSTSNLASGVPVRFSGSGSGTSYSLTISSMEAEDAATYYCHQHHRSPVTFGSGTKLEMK yields IC90, GM-CSF release, NCI/ADR-RES cells, trun-IL-36g of 0.5
